Reference for the values: ChEMBL document CHEMBL1131614

Collected LDL oxidation remaining (% of control) values appear next to each entry.
# Measurement Target: UniProt:P08170
# Sequence (P08170 whole entry): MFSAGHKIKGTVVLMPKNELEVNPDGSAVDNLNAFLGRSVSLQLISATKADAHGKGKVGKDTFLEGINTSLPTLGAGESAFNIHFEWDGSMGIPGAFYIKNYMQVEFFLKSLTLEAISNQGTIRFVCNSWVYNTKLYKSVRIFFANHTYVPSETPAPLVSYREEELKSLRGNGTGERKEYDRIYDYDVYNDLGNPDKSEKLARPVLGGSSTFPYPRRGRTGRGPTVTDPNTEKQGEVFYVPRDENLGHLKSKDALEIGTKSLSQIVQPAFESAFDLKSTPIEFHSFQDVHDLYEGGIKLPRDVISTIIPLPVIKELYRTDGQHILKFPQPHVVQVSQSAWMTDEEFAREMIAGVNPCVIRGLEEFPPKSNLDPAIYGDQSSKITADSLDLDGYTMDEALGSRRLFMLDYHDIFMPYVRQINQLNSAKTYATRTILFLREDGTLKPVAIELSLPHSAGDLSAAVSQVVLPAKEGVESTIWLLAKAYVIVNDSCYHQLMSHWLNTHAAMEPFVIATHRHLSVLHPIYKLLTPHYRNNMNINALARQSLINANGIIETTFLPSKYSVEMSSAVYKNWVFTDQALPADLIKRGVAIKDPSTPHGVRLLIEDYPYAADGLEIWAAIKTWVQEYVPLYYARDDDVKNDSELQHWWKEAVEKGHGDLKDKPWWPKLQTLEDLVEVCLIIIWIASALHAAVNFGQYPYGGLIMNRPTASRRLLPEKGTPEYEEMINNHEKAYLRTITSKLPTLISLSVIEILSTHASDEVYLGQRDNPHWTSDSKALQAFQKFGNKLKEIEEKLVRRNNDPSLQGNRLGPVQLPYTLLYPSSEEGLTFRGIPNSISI
# Assay Procedure: In vitro inhibition of rabbit LDL oxidation by soybean lipoxygenase at 5 uM
# Type: functional
Parameter Measured: LDL oxidation remaining (% of control)

Compound | Result
CN(c1nc2ccccc2s1)C1CCN(CCCN2C(=O)CSC2c2cc(C(C)(C)C)c(O)c(C(C)(C)C)c2)CC1 (stereo not given) | 4.9%
CN(CCCN1C(=O)CSC1c1cc(C(C)(C)C)c(O)c(C(C)(C)C)c1)CCOc1ccc2c(c1)OCO2 (stereo not given) | 3%
COc1ccc(CCN(C)CCCN2C(=O)CSC2c2cc(C(C)(C)C)c(O)c(C(C)(C)C)c2)cc1OC (stereo not given) | 0.6%
COc1ccc([C@@H]2Sc3ccccc3N(CCN(C)C)C(=O)[C@@H]2OC(C)=O)cc1 [DILTIAZEM] | 111%
Cc1c(C)c2c(c(C)c1O)CC[C@@](C)(CCC[C@H](C)CCC[C@H](C)CCCC(C)C)O2 | 13.2%
